Structures can show the parent of a compound that is named as a salt.
VALUE TYPE: melting point (°C)
# value in °C; strip the unit string

What value of melting point has been recorded for this entry: COc1nc2ccc(Cl)cc2cc1C(c1ccc(Cl)cc1)C1(O)CCNCC1F (stereo not drawn) [Compound 455]
118

What value of melting point has been recorded for this entry: COc1nc2ccc(Br)cc2cc1C(c1cccc(Cl)c1)C1(O)CCNC(c2ccc(F)cc2C)C1 (stereo not drawn) (as salt: fumarate) [Compound 150]
184

What value of melting point has been recorded for this entry: COc1nc2ccc(Cl)cc2cc1C(c1ccc(Cl)cc1)C1(O)CCN(C(C)c2ccccc2)C(CO)C1 (stereo not drawn) [Compound 9]
182

What value of melting point has been recorded for this entry: CS(=O)(=O)c1ccc2[nH]c(=O)c(C(c3ccccc3)C3(O)CCNC(Cc4ccccc4)C3)cc2c1 (stereo not drawn) [Compound 156]
254

What value of melting point has been recorded for this entry: COc1nc2ccc(Cl)cc2cc1C(c1ccc(Cl)cc1)C1(O)CCNC(c2ccccc2)C1 (stereo not drawn) (as salt: fumarate) [Compound 404]
168

What value of melting point has been recorded for this entry: COc1nc2ccc(S(C)(=O)=O)cc2cc1C(c1cccc(Cl)c1)C1(O)CCNC(c2ccc(F)cc2C)C1 (stereo not drawn) [Compound 47]
174

* * *

Where a name gives a salt, the structure may show the parent alone.
Hi there, I'd appreciate the recorded melting point for every entry that follows.
# value in °C; strip the unit string

What value of melting point has been recorded for this entry: COc1nc2ccc(S(C)(=O)=O)cc2cc1C(c1ccc(Cl)cc1)C1(O)CCNCC1Cc1cccc(F)c1 (stereo not shown)
150

What value of melting point has been recorded for this entry: COc1nc2ccc(S(C)(=O)=O)cc2cc1C(c1ccccc1)C1(O)CCNC(Cc2ccccc2)C1 (stereo not shown) [Compound 157]
100

What value of melting point has been recorded for this entry: COc1nc2ccccc2cc1C(c1ccccc1)C1(O)CCNC(Cc2ccccc2)C1 (stereo not shown) (as salt: fumarate) [Compound 400]
157

* * *

Structures can show the parent of a compound that is named as a salt.
VALUE TYPE: melting point (°C)
# value in °C; strip the unit string

What value of melting point has been recorded for this entry: CSc1ccc2[nH]c(=O)c(C(c3cccc(Cl)c3)C3(O)CCNC(c4ccc(F)cc4C)C3)cc2c1 (stereo not shown) [Compound 175]
194

What value of melting point has been recorded for this entry: COc1nc2ccc(SC)cc2cc1C(c1ccccc1)C1(O)CCNC(c2ccc(F)cc2C)C1 (stereo not shown) [Compound 198]
187

What value of melting point has been recorded for this entry: COc1nc2ccc(Br)cc2cc1C(c1ccc(Cl)cc1)C1(O)CCNC(Cc2ccc(F)cc2)C1 (stereo not shown) [Compound 338]
198

What value of melting point has been recorded for this entry: COc1nc2ccc(SC)cc2cc1C(c1ccc(Cl)cc1)C1(O)CCNC(CC2CCCCC2)C1 (stereo not shown) (as salt: fumarate) [Compound 288]
150

What value of melting point has been recorded for this entry: COc1nc2ccc(Cl)cc2cc1C(c1ccc(Cl)cc1)C1(O)CCNCC1C (stereo not shown) [Compound 423]
174

What value of melting point has been recorded for this entry: COc1nc2ccc(Br)cc2cc1C(c1ccc(Cl)cc1)C1(O)CCNC(CC2CCCCC2)C1 (stereo not shown) [Compound 256]
118

What value of melting point has been recorded for this entry: COc1nc2ccc(Cl)cc2cc1C(c1ccc(Cl)cc1)C1(O)CCNC(c2ccccc2)C1 (stereo not shown) (as salt: fumarate) [Compound 403]
176

What value of melting point has been recorded for this entry: COc1nc2ccc(SC)cc2cc1C(c1ccccc1)C1(O)CCNC(c2ccc(F)cc2C)C1 (stereo not shown) (as salt: fumarate) [Compound 170]
176

What value of melting point has been recorded for this entry: C=CC1CC(O)(C(c2ccc(Cl)cc2)c2cc3cc(Br)ccc3nc2OC)CCN1 (stereo not shown) [Compound 374]
162

What value of melting point has been recorded for this entry: COc1nc2ccc(S(C)(=O)=O)cc2cc1C(c1ccc(Cl)cc1)C1(O)CCNC(c2ccc(F)cc2C)C1 (stereo not shown) [Compound 218]
174

What value of melting point has been recorded for this entry: COc1nc2ccc(Cl)cc2cc1C(c1ccc(Cl)cc1)C1(O)CCNCC1c1ccccc1 (stereo not shown) (as salt: fumarate) [Compound 409]
190

What value of melting point has been recorded for this entry: CC1CC(O)(C(c2ccc(Cl)cc2)c2cc3cc(Br)ccc3[nH]c2=O)CCN1 (stereo not shown) (as salt: hydrochloride) [Compound 132]
244

What value of melting point has been recorded for this entry: COc1nc2ccc(SC)cc2cc1C(c1ccc(Cl)cc1)C1(O)CCNC(Cc2ccccc2)C1 (stereo not shown) [Compound 91]
214

What value of melting point has been recorded for this entry: COc1nc2ccc(S(C)(=O)=O)cc2cc1C(c1ccc(Cl)cc1)C1(O)CCNC(c2ccc3ccccc3c2)C1 (stereo not shown) [Compound 466]
188

What value of melting point has been recorded for this entry: COc1nc2ccc(S(C)(=O)=O)cc2cc1C(c1cccc(Cl)c1)C1(O)CCNC(Cc2ccc(F)cc2F)C1 (stereo not shown) (as salt: trifluoroacetate) [Compound 326]
166

What value of melting point has been recorded for this entry: COc1nc2ccc(Cl)cc2cc1C(c1ccc(Cl)cc1)C1(O)CCNC(Cc2cccnc2)C1 (stereo not shown) [Compound 467]
148

What value of melting point has been recorded for this entry: COc1nc2ccc(S(=O)(=O)C(C)C)cc2cc1C(c1ccc(Cl)cc1)C1(O)CCNC(Cc2ccccc2)C1 (stereo not shown) [Compound 386]
125

What value of melting point has been recorded for this entry: COc1nc2ccc(SC)cc2cc1C(c1ccc(Cl)cc1)C1(O)CCNC(Cc2ccc(F)cc2)C1 (stereo not shown) [Compound 301]
170

What value of melting point has been recorded for this entry: CCCN(C)CC1CC(O)(C(c2ccc(Cl)cc2)c2cc3cc(Cl)ccc3nc2OC)CCN1 (stereo not shown) (as salt: fumarate) [Compound 64]
141

What value of melting point has been recorded for this entry: O=c1[nH]c2ccc(Br)cc2cc1C(c1ccc(Cl)cc1)C1(O)CCNC(Cc2ccc(F)cc2F)C1 (stereo not shown) (as salt: hydrochloride) [Compound 314]
234

What value of melting point has been recorded for this entry: COc1nc2ccc(Br)cc2cc1C(c1ccc(Cl)cc1)C1(O)CCNC(Cc2ccccc2)C1 (stereo not shown) [Compound 78]
130

What value of melting point has been recorded for this entry: COc1nc2ccc(Br)cc2cc1C(c1ccc(Cl)cc1)C1(O)CCNC(c2ccc(F)cc2C)C1 (stereo not shown) [Compound 105]
149

What value of melting point has been recorded for this entry: COc1nc2ccc(S(C)(=O)=O)cc2cc1C(c1ccc(Cl)cc1)C1(O)CCNC(c2ccc(F)cc2C)C1 (stereo not shown) (as salt: fumarate) [Compound 201]
195

What value of melting point has been recorded for this entry: COc1nc2ccc(Br)cc2cc1C(c1ccc(Cl)cc1)C1(O)CCNC(Cc2ccc(F)c(F)c2)C1 (stereo not shown) [Compound 111]
111

What value of melting point has been recorded for this entry: COc1nc2ccc(S(C)(=O)=O)cc2cc1C(c1ccc(Cl)cc1)C1(O)CCNC(Cc2ccccc2)C1 (stereo not shown) [Compound 97]
120

* * *

VALUE TYPE: melting point (°C)
# value in °C; strip the unit string

What value of melting point has been recorded for this entry: COc1nc2ccc(SC)cc2cc1C(c1ccc(Cl)cc1)C1(O)CCNC(Cc2ccc(F)c(F)c2)C1 (stereo not shown) [Compound 189]
160

What value of melting point has been recorded for this entry: COc1nc2ccc(Cl)cc2cc1C(c1ccc(Cl)cc1)C1(O)CCNCC1F (stereo not shown) [Compound 452]
114

What value of melting point has been recorded for this entry: COc1nc2ccc(Br)cc2cc1C(c1ccc(Cl)cc1)C1(O)CCNC(Cc2ccc(F)cc2)C1 (stereo not shown) [Compound 357]
104

What value of melting point has been recorded for this entry: CCn1c(=O)c(C(c2ccc(Cl)cc2)C2(O)CCNC(Cc3ccccc3)C2)cc2cc(Br)ccc21 (stereo not shown) [Compound 83]
219

What value of melting point has been recorded for this entry: COc1nc2ccc(Cl)cc2cc1C(c1ccc(Cl)cc1)C1(O)CCNCC1F (stereo not shown) [Compound 454]
186

* * *

Structures can show the parent of a compound that is named as a salt.
VALUE TYPE: melting point (°C)
# value in °C; strip the unit string

What value of melting point has been recorded for this entry: COc1nc2ccc(F)cc2cc1C(c1ccc(Cl)cc1)C1(O)CCNC(c2ccc(F)cc2C)C1 (stereo not drawn) (as salt: fumarate) [Compound 332]
164

What value of melting point has been recorded for this entry: CS(=O)(=O)c1ccc2[nH]c(=O)c(C(c3ccc(Cl)cc3)C3(O)CCN[C@@H](Cc4ccc(F)c(F)c4)C3)cc2c1 (stereo in doubt) (as salt: hydrochloride) [Compound 206]
245

What value of melting point has been recorded for this entry: COc1nc2ccc(S(C)(=O)=O)cc2cc1C(c1ccc(Cl)cc1)C1(O)CCNC(c2ccc3ccccc3c2)C1 (stereo not drawn) [Compound 461]
208
